# Test system: U-2 OS cells
# test: Multiplexed MDR detection by flow cytometry (dye uptake, with PI);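 also: MAF computed as 100 × (MFI with inhibitor − MFI without) / MFI with inhibitor, after 5 min inhibitor pre-incubation then 30 min dye loading at 37 °C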
# Type: cell-based, human
# condition-description: Rhod-4 AM + PI, uncompensated
Quick rule: R4 + PI, MAF of at least 20 means satisfied, below that means not satisfied.

• COc1ccc(CCN(C)CCCC(C#N)(c2ccc(OC)c(OC)c2)C(C)C)cc1OC (centres unmarked) = satisfied
• COc1ccc2c3c([nH]c2c1)[C@H](C=C(C)C)N1C(=O)[C@@H]2CCCN2C(=O)[C@@H]1C3 = not satisfied
• CO[C@@H]1[C@@H](OC(N)=O)[C@@H](O)[C@H](Oc2ccc3c(O)c(NC(=O)c4ccc(O)c(CC=C(C)C)c4)c(=O)oc3c2C)OC1(C)C = not satisfied
• CN(C)C(=O)CCSC(SCCC(=O)O)c1cccc(/C=C/c2ccc3ccc(Cl)cc3n2)c1 (centres unmarked) = satisfied

Confirm if R4 + PI, MAF reported for the compound CCCN(CCC)S(=O)(=O)c1ccc(C(=O)O)cc1 is 20 or above.
satisfied
